Test system: DC2.4 cells
Test: In vitro transfection of DC2.4 cells with EGFP mRNA LNP preparation (flow cytometry)
Assay type: cell-based, mouse
Settings: DC2.4 cells, EGFP mRNA LNP, 200 ng mRNA per well, flow cytometry
Exercise: state measured Cell Viability for each of the compounds provided.
Numbers only, in %.

Example compounds with recorded Cell Viability:
- COMPOUND: "CCCCCCCCCCCCC(O)CN(CCOCCOCCN(CCOCCOCCN(CC(O)CCCCCCCCCCCC)CC(O)CCCCCCCCCCCC)CCN1CCN(CCO)CC1)CC(O)CCCCCCCCCCCC (centres unmarked)"
  UNIT_TAG: "%"
  RECORDED_MEASUREMENT: 82.3
- COMPOUND: "CCCCCCCCCCCCCCCCC(O)CN(CCN(CCN1CCN(CCO)CC1)CCN(CC(O)CCCCCCCCCCCCCCCC)CC(O)CCCCCCCCCCCCCCCC)CC(O)CCCCCCCCCCCCCCCC (centres unmarked)"
  UNIT_TAG: "%"
  RECORDED_MEASUREMENT: 86.0
- COMPOUND: "CCCCCCCCCCCCC(O)CN(CCOCCOCCOCCN(CCOCCOCCOCCN(CC(O)CCCCCCCCCCCC)CC(O)CCCCCCCCCCCC)CCN1CCN(CCO)CC1)CC(O)CCCCCCCCCCCC (centres unmarked)"
  UNIT_TAG: "%"
  RECORDED_MEASUREMENT: 99.0

Record Cell Viability per entry; entries follow.
1. CCCCCCCCCCC(O)CN(CCOCCN(CCOCCN(CC(O)CCCCCCCCCC)CC(O)CCCCCCCCCC)CCN1CCN(C)CC1)CC(O)CCCCCCCCCC (centres unmarked)
2. CCCCCCCCCCCCCCC(O)CN(CCOCCN(CCOCCN(CC(O)CCCCCCCCCCCCCC)CC(O)CCCCCCCCCCCCCC)CCN1CCN(CCO)CC1)CC(O)CCCCCCCCCCCCCC (centres unmarked)

[87.1, 85.2]
